- assay target: human recombinant BACE1 (Homo sapiens (Human), UniProt P56817)
- Sequence (P56817 46-501): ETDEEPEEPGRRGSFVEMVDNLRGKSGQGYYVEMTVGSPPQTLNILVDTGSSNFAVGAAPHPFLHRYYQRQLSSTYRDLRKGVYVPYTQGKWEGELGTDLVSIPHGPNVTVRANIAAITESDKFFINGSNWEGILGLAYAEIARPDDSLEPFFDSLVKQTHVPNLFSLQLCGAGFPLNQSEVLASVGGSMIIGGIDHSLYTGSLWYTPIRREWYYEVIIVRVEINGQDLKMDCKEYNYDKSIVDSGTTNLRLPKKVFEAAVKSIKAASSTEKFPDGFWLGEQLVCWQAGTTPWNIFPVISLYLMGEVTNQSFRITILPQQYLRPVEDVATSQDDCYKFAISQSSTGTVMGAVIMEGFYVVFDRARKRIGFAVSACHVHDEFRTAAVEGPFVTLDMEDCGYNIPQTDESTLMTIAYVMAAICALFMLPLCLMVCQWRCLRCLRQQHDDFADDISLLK
- protocol description: In vitro enzymatic BACE1 FRET assay
- Assay type: biochemical
- experimental parameters: read-out: IC50 IP (μM) BACE1 enzyme
readout name: IC50 (µM)

Please review the following examples before continuing.
structure_notation=C#CCOc1cnc(C(=O)Nc2ccc(F)c([C@@]3(CF)N=C(N)S[C@@]4(COCC(F)(F)F)C[C@H]43)c2)cn1 unit_tag=µM recorded_result=0.00028
structure_notation=C[C@]1(c2cc(Nc3nccc4nc(OCc5ncco5)cnc34)ccc2F)N=C(N)S[C@@]2(CF)C[C@H]21 unit_tag=µM recorded_result=0.00357
structure_notation=C[C@]1(c2cc(NC(=O)c3ccc(OCC(F)(F)F)cn3)ccc2F)N=C(N)S[C@@]2(CF)C[C@H]21 unit_tag=µM recorded_result=0.00629

(a) C#CCOc1cnc2c(Nc3cc(F)c(F)c([C@@]4(C)N=C(N)S[C@@]5(C#N)C[C@H]54)c3)ncnc2c1
(b) C#CCOc1cnc2c(Nc3ccc(F)c([C@@]4(CF)N=C(N)S[C@@]5(/C=C/C(=O)N6CC(F)(F)C6)C[C@H]54)c3)nccc2n1
(c) COC[C@]12C[C@H]1[C@@](C)(c1cc(NC(=O)c3cnc(OCC4CC(F)(F)C4)cn3)cc(F)c1F)N=C(N)S2
Query string: With regard to IC50, arrange the entries in ascending order, please. // rank by listing labels in the order requested
Result string: b, a, c
